Listing of entries alongside the reported fold repression.
# System under test: T1, ECF03_1198
# T1 chain: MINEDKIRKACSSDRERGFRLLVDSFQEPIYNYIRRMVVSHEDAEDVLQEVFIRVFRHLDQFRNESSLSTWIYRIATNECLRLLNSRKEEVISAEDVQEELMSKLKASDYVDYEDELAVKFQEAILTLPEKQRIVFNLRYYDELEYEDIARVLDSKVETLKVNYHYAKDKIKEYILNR
Please give the numeric answer without any surrounding text.

Solved cases below.
AS15_524 (protein) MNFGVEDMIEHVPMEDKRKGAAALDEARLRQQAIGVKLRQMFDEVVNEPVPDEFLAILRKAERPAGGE    3.92
AS27_1331 (protein) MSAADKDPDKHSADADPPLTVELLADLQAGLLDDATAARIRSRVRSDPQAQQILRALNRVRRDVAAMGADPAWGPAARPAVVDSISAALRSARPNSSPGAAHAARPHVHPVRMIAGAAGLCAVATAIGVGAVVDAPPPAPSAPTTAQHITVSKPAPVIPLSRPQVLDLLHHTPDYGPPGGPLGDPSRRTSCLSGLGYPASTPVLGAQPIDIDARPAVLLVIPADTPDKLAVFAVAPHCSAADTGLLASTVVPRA    3.98

From here, focus on the item given below.
Please list fold repression recorded for the binder AS33_375 (protein) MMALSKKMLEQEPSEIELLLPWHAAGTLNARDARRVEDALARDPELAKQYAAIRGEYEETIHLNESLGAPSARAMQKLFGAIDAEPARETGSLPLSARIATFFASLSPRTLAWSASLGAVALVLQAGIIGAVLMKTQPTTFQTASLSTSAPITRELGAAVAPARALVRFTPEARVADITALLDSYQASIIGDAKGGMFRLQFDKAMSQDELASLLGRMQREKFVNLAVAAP
21.3

These measurements were taken from paper PMC3817407.
